Molecular target: Muscarinic acetylcholine receptor M5 (Rattus norvegicus)
Sequence (P08911 whole entry): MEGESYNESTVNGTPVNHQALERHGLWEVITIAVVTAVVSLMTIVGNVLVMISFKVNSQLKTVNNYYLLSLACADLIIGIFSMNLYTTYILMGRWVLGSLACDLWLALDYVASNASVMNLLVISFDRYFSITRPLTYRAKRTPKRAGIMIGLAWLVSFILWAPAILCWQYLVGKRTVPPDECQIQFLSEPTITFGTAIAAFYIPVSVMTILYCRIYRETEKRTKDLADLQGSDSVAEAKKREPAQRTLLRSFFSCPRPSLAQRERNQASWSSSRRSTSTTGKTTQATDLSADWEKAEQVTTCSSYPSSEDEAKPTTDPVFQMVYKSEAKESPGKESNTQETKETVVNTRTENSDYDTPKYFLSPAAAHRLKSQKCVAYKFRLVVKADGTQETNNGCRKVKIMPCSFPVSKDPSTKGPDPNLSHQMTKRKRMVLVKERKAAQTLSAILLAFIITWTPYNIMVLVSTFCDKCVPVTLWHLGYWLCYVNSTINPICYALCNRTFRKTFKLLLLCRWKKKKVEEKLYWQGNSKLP
READOUT NAME: Ki (nM)
State the answer as a number, implicitly in nM.

In: // returns reported Ki for input Cc1ccc(O)c([C@H](CCN(C(C)C)C(C)C)c2ccccc2)c1 [TOLTERODINE]
Out: 2.2

###

Measured Activity, listed per entry.
molecular target: Muscarinic acetylcholine receptor (Rattus norvegicus) (UniProt P08482+P08483+P08485+P08911+P10980); assay: Displacement of [3H]NMS from muscarinic receptor in Sprague-Dawley rat brain homogenates assessed as remaining protein bound radioligand levels at 300 pM to 1 uM preincubated for 60 mins followed by single washout treatment by liquid scintillation counting method relative to control
State the answer as a number, implicitly in %.

For orientation, consider the following solved cases.
CCCCCCCCCCCCCCCCCC(=O)OC[C@H](COP(=O)(O)OCCOCCOCCOCCNC(=O)CCCCCC(=O)NCCc1ccc(O)c([C@H](CCN(C(C)C)C(C)C)c2ccccc2)c1)OC(=O)CCCCCCCCCCCCCCCCC; 15.5
CCCCCCCCCCCCCCCCCC(=O)OC[C@H](COP(=O)(O)OCCOCCOCCOCCOCCOCCOCCOCCNC(=O)CCCCCC(=O)NCCc1ccc(O)c([C@H](CCN(C(C)C)C(C)C)c2ccccc2)c1)OC(=O)CCCCCCCCCCCCCCCCC; 2.1
CCCCCCCCCCCCCCCCCC(=O)OC[C@H](COP(=O)(O)OCCOCCOCCOCCOCCOCCNC(=O)CCCCCC(=O)NCCc1ccc(O)c([C@H](CCN(C(C)C)C(C)C)c2ccccc2)c1)OC(=O)CCCCCCCCCCCCCCCCC; 5.1
CCCCCCCCCCCCCCCCCC(=O)OC[C@H](COP(=O)(O)OCCOCCNC(=O)CCCCCC(=O)NCCc1ccc(O)c([C@H](CCN(C(C)C)C(C)C)c2ccccc2)c1)OC(=O)CCCCCCCCCCCCCCCCC; 59.2
Cc1ccc(O)c([C@H](CCN(C(C)C)C(C)C)c2ccccc2)c1 [TOLTERODINE]; 36.2

In: // returns reported Activity for input `CCCCCCCCCCCCCCCCCC(=O)OC[C@H](COP(=O)(O)OCCOCCOCCOCCOCCOCCOCCOCCOCCOCCOCCOCCNC(=O)CCCCCC(=O)NCCc1ccc(O)c([C@H](CCN(C(C)C)C(C)C)c2ccccc2)c1)OC(=O)CCCCCCCCCCCCCCCCC`
Out: 1.9

In: What would you report for `CC(C)N(CC[C@H](c1ccccc1)c1cc(CCNC(=O)CCCCCC(=O)NCCOCCOCCOCCOCCOCCOCCOCCOCCOCCO)ccc1O)C(C)C.Cl` ?
Out: 34.9

In: What would you report for `CCCCCCCCCCCCCCCCCC(=O)OC[C@H](COP(=O)(O)OCCOCCOCCOCCOCCOCCOCCOCCOCCOCCNC(=O)CCCCCC(=O)NCCc1ccc(O)c([C@H](CCN(C(C)C)C(C)C)c2ccccc2)c1)OC(=O)CCCCCCCCCCCCCCCCC` ?
Out: 1.7

Just for reference, ChEMBL document CHEMBL4177760 is where these values come from.
